Where do the numbers come from? From the supplement of paper PMC10567573.

B1: NETO1 (parent)
chain: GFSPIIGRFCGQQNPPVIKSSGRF

# Variants of: B1
# Measurement protocol: protein stability index of a GFP-peptide fusion (GPS, HEK-293T) (PSI 1-6); higher = more stable;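 note: lentivirally expressed fusions sorted by FACS into six bins by GFP to DsRed ratio, PSI derived from sequencing read proportions per bin multiplied by bin number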
# Condition: c terminus: a fixed tail appended
# protein stability index per record follows
Give the value as a plain number.

Recorded protein stability index, per entry:
Mutation string | protein stability index
F9L | 2.49
I18T | 2.15

I have this variant here, `R8H` , and I need its recorded protein stability index.
1.79

What would you report for `S20G` ?
1.9

What would you report for `P16Y` ?
2.24

What would you report for `F9Y` ?
1.98

What would you report for `P4V` ?
1.87

What would you report for `F24V` ?
2.42

What would you report for `P4Y` ?
2.44

What would you report for `Q12S` ?
2.03
